- TARGET_OF_ASSAY: mouse Peroxisome Proliferator-activated Receptor gamma (PPARg), Pparg (gene 19016) (UniProt P37238)
- Sequence (P37238 whole entry, looked up): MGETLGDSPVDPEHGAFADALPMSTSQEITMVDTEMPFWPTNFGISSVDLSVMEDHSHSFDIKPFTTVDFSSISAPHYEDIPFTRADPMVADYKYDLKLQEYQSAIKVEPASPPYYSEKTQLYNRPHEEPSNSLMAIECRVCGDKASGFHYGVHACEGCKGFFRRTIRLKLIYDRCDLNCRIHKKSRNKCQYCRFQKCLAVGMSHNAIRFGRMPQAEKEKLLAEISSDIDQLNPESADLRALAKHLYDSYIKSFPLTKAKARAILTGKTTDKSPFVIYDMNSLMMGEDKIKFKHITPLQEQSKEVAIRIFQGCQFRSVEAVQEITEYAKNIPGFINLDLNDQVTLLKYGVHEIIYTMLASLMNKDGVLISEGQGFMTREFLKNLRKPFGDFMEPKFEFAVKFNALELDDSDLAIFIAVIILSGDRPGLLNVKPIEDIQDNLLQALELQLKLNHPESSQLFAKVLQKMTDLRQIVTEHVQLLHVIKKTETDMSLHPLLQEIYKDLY
- ASSAY_DETAILS: ATG_mPPARg_XSP2: Attagene TRANS-FACTORIAL Multi-Species (XSP2) HepG2 Assay for mouse Peroxisome Proliferator-activated Receptor gamma (PPARg) (AID 2283830);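 note: hits are gains in reporter mRNA above DMSO so AC50 marks activation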
Records with an inconclusive call do not appear. Calls of active or inactive are those of the source. Rule for the calls: active = hit-call score of the fitted dose curve at least 0.9, where 1 is the maximum; inconclusive = response in the unintended direction; inactive = score below 0.9.
Labels: active, inactive

>  <MOLECULE>
C[C@H]1CCCC(=O)CCC/C=C/c2cc(O)cc(O)c2C(=O)O1

>  <LABEL_CLASS>
inactive

$$$$
>  <MOLECULE>
CC1(C)CCC(Cc2ccc(Cl)cc2)C1(O)Cn1cncn1 (centres undefined)

>  <LABEL_CLASS>
active

$$$$
>  <MOLECULE>
C[C@]12CC[C@H](O)CC1=CC[C@@H]1[C@@H]2CC[C@]2(C)C(=O)CC[C@@H]12

>  <LABEL_CLASS>
inactive

$$$$
>  <MOLECULE>
CC(C)(C)c1cc(O)ccc1O

>  <LABEL_CLASS>
active

$$$$

---

- ASSAY_DETAILS: BSK_BT_Bcell_Proliferation: Viability Assessment in the BioMAP Diversity Plus: BT Assay for B cell Proliferation (AID 2284227)
- SETUP_CONDITIONS: primary human B cells with PBMC
The source made the active and inactive calls. How the source made its calls: active means hit-call score of the fitted dose curve at least 0.9, where 1 is the maximum; inactive means score below 0.9.
Possible outcomes: active, inactive

>  <COMPOUND>
O=C(O)C(F)(F)C(F)(F)C(F)(F)C(F)(F)C(F)(F)C(F)(F)C(F)(F)C(F)(F)C(F)(F)C(F)(F)F

>  <LABEL_CLASS>
inactive

$$$$
>  <COMPOUND>
CCOP(=S)(OCC)Oc1ccc(S(C)=O)cc1 (stereo unspecified)

>  <LABEL_CLASS>
inactive

$$$$
>  <COMPOUND>
OCc1ccco1

>  <LABEL_CLASS>
active

$$$$
>  <COMPOUND>
O=[N+]([O-])c1ccc2c3c(cccc13)CC2

>  <LABEL_CLASS>
inactive

$$$$
>  <COMPOUND>
CCOP(=S)(OCC)SCCS(=O)(=O)CC

>  <LABEL_CLASS>
inactive

$$$$
>  <COMPOUND>
COP(=S)(OC)Oc1cc(Cl)c(Cl)cc1Cl

>  <LABEL_CLASS>
inactive

$$$$

---

- ASSAY_DETAILS: ATG_M_19_CIS: Attagene CIS-FACTORIAL HepG2 Assay for M19 Transcription Factor (Internal Marker) (AID 2282939)
- SETUP_CONDITIONS: HepG2 Attagene CIS-FACTORIAL M19 internal marker reporter; actives raise or lower the signal
Calls of active or inactive are those of the source. How the source made its calls: active means hit-call score of the fitted dose curve at least 0.9, where 1 is the maximum; inactive means score below 0.9.
Possible outcomes: Y (active), N (inactive)

>  <MOLECULE>
Cl/C=C\C[N+]12CN3CN(CN(C3)C1)C2

>  <LABEL_CLASS>
N

$$$$
>  <MOLECULE>
C=CC(=O)N(C)C

>  <LABEL_CLASS>
N

$$$$
>  <MOLECULE>
CCCCCCCCc1ccc(O)cc1

>  <LABEL_CLASS>
N

$$$$
>  <MOLECULE>
C=CCc1ccc(OC)cc1

>  <LABEL_CLASS>
N

$$$$
>  <MOLECULE>
ClCC(Cl)CCl

>  <LABEL_CLASS>
N

$$$$
>  <MOLECULE>
CC(C)CCCCCCOC(=O)c1ccccc1C(=O)OCCCCCCC(C)C

>  <LABEL_CLASS>
N

$$$$
>  <MOLECULE>
C=C(C)C#N

>  <LABEL_CLASS>
N

$$$$
>  <MOLECULE>
Oc1ccc(-c2ccccc2)cc1

>  <LABEL_CLASS>
N

$$$$
>  <MOLECULE>
C(=NC1CCCCC1)=NC1CCCCC1

>  <LABEL_CLASS>
N

$$$$
>  <MOLECULE>
O=C(Cc1ccccc1)c1ccccc1

>  <LABEL_CLASS>
N

$$$$
>  <MOLECULE>
Fc1ccc(C2(Cn3cncn3)OC2c2ccccc2Cl)cc1 (stereo not given)

>  <LABEL_CLASS>
N

$$$$
>  <MOLECULE>
COP(=S)(OC)Oc1ccc(S(=O)(=O)N(C)C)cc1

>  <LABEL_CLASS>
N

$$$$
>  <MOLECULE>
O=C(Cl)c1ccc(Cl)cc1

>  <LABEL_CLASS>
N

$$$$
>  <MOLECULE>
OCC(O)CCl (stereo not given)

>  <LABEL_CLASS>
N

$$$$
>  <MOLECULE>
c1cc[c]([Hg][c]2ccccc2)cc1

>  <LABEL_CLASS>
N

$$$$
>  <MOLECULE>
CCCCCCCCC(=O)NCc1ccc(O)c(OC)c1

>  <LABEL_CLASS>
N

$$$$
>  <MOLECULE>
CCC(=O)c1ccccc1

>  <LABEL_CLASS>
N

$$$$
>  <MOLECULE>
COc1ccc(C=O)cc1

>  <LABEL_CLASS>
N

$$$$
>  <MOLECULE>
COc1ccc(OC)c(C=O)c1

>  <LABEL_CLASS>
N

$$$$
>  <MOLECULE>
Cn1sc(Cl)cc1=O

>  <LABEL_CLASS>
N

$$$$
>  <MOLECULE>
ClCc1cccnc1

>  <LABEL_CLASS>
N

$$$$
>  <MOLECULE>
CCOC(=O)/C=C(C)/C=C/C[C@@H](C)CCCC(C)C

>  <LABEL_CLASS>
Y

$$$$
>  <MOLECULE>
COP(=S)(OC)Oc1ccc(Sc2ccc(OP(=S)(OC)OC)cc2)cc1

>  <LABEL_CLASS>
N

$$$$
>  <MOLECULE>
ClCCBr

>  <LABEL_CLASS>
N

$$$$
>  <MOLECULE>
O=C1C2(Cl)C3(Cl)C4(Cl)C(Cl)(Cl)C5(Cl)C3(Cl)C1(Cl)C5(Cl)C24Cl (stereo not given)

>  <LABEL_CLASS>
N

$$$$
>  <MOLECULE>
O=C(O)C(F)(F)C(F)(F)C(F)(F)C(F)(F)C(F)(F)C(F)(F)F

>  <LABEL_CLASS>
N

$$$$
>  <MOLECULE>
CCOC(=O)CP(=O)(OCC)OCC

>  <LABEL_CLASS>
N

$$$$
>  <MOLECULE>
Cc1cc(Cl)ccc1O[C@H](C)C(=O)O

>  <LABEL_CLASS>
N

$$$$
>  <MOLECULE>
Clc1ccc(COC(Cn2ccnc2)c2ccc(Cl)cc2Cl)cc1 (stereo not given)

>  <LABEL_CLASS>
N

$$$$
>  <MOLECULE>
CC(=O)C(Cl)C(=O)N(C)C (stereo not given)

>  <LABEL_CLASS>
N

$$$$
>  <MOLECULE>
O=[N+]([O-])c1ccc2c3c(cccc13)CC2

>  <LABEL_CLASS>
N

$$$$
>  <MOLECULE>
CC12CC1(C)C(=O)N(c1cc(Cl)cc(Cl)c1)C2=O (stereo not given)

>  <LABEL_CLASS>
N

$$$$
>  <MOLECULE>
Oc1cccc2cccnc12

>  <LABEL_CLASS>
N

$$$$
>  <MOLECULE>
CC(C)(OO)c1ccccc1

>  <LABEL_CLASS>
N

$$$$
>  <MOLECULE>
Clc1ccc(C2(Cn3cncn3)CC(Br)CO2)c(Cl)c1 (stereo not given)

>  <LABEL_CLASS>
N

$$$$
>  <MOLECULE>
O=[N+]([O-])c1ccc(O)c([N+](=O)[O-])c1

>  <LABEL_CLASS>
N

$$$$
>  <MOLECULE>
CCOC(=O)Nc1cccc(OC(=O)Nc2ccccc2)c1

>  <LABEL_CLASS>
N

$$$$
>  <MOLECULE>
CC1CN1P(=O)(N1CC1C)N1CC1C (stereo not given)

>  <LABEL_CLASS>
N

$$$$
>  <MOLECULE>
CC(C)(C)CC(C)(C)c1ccc(O)cc1

>  <LABEL_CLASS>
N

$$$$
>  <MOLECULE>
COS(=O)(=O)c1ccc(C)cc1

>  <LABEL_CLASS>
N

$$$$
>  <MOLECULE>
CC(C)c1ccc(CO)cc1

>  <LABEL_CLASS>
N

$$$$
>  <MOLECULE>
Nc1ccc(-c2ccc(N)c(Cl)c2)cc1Cl

>  <LABEL_CLASS>
N

$$$$
>  <MOLECULE>
ClCc1ccccn1

>  <LABEL_CLASS>
N

$$$$
>  <MOLECULE>
COC(=O)c1sccc1S(=O)(=O)NC(=O)Nc1nc(C)nc(OC)n1

>  <LABEL_CLASS>
N

$$$$
>  <MOLECULE>
CCC[CH2][Sn]([CH2]CCC)([CH2]CCC)[O]C(=O)c1ccccc1

>  <LABEL_CLASS>
N

$$$$
>  <MOLECULE>
CCOP(OCC)OCC

>  <LABEL_CLASS>
N

$$$$
>  <MOLECULE>
C[C@]12CCC(=O)C[C@@H]1CC[C@@H]1[C@@H]2CC[C@]2(C)[C@@H](O)CC[C@@H]12

>  <LABEL_CLASS>
N

$$$$
>  <MOLECULE>
CC(Br)C(=O)O (stereo not given)

>  <LABEL_CLASS>
N

$$$$
>  <MOLECULE>
COc1ccccc1OC

>  <LABEL_CLASS>
N

$$$$
>  <MOLECULE>
Oc1c(I)cc(I)cc1I

>  <LABEL_CLASS>
N

$$$$
>  <MOLECULE>
NC(=O)O

>  <LABEL_CLASS>
N

$$$$
>  <MOLECULE>
CC(C)c1cccc(C(C)C)c1O

>  <LABEL_CLASS>
N

$$$$
>  <MOLECULE>
c1ccc(N=NNc2ccccc2)cc1

>  <LABEL_CLASS>
N

$$$$
>  <MOLECULE>
COP(=O)(OC)O/C(=C\Cl)c1cc(Cl)c(Cl)cc1Cl

>  <LABEL_CLASS>
N

$$$$
>  <MOLECULE>
CN(C)P(=O)(N(C)C)N(C)C

>  <LABEL_CLASS>
N

$$$$
>  <MOLECULE>
O=C(Nc1ccc2[nH]ccc2c1)c1cc2cc(F)ccc2n1Cc1cccc(F)c1

>  <LABEL_CLASS>
Y

$$$$
>  <MOLECULE>
C1CCC(NC2CCCCC2)CC1

>  <LABEL_CLASS>
N

$$$$
>  <MOLECULE>
CC(C)(C)c1cc(O)ccc1O

>  <LABEL_CLASS>
N

$$$$
>  <MOLECULE>
CCC(C)c1cccc(C(C)CC)c1O (stereo not given)

>  <LABEL_CLASS>
N

$$$$
>  <MOLECULE>
O=C1C(Cl)=C(Cl)C(=O)c2ccccc21

>  <LABEL_CLASS>
N

$$$$
